Reference source: paper PMC3206016

Target: T1, SCRIB-3/4 (MBP fusion of the third of the four PDZ domains of SCRIB) (human, UniProt Q14160-1 997-1093)
T1 construct: also called MBP-PDZ analyte SCRIB-3/4; source: E. coli BL21 DE3, purified (amylose column, Superdex 75 gel filtration)
T1 sequence (looked up): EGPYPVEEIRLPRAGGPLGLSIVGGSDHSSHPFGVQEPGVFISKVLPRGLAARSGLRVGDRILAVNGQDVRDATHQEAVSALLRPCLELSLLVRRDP
Assay: SPR
Conditions: both partners purified
Ends that are not written are not given here. * marks the point of attachment. Biotin = O=C1N[C@H]2[C@H](CS[C@H]2CCCCC(=O)*)N1
Listed here: items and their measured Kd.
A complete answer gives the number and then names the unit.

[[record]]
binder = "Biotin-KDECVIATEV (also called DLL1 long; source: synthetic peptide (JPT Peptide Technologies)) [DLL1_10 (long peptide of Delta-like protein 1: the last ten residues)]"
value = "172 µM"


So for Biotin-GSGAGKETLV (also called NET1 short; source: synthetic peptide (JPT Peptide Technologies)) , the logged Kd turned out to be 308 µM

So for Biotin-GSGAGKESYV (also called ABC1 short; source: synthetic peptide (JPT Peptide Technologies)) , the logged Kd turned out to be 229 µM

So for Biotin-GSGAGIATEV (also called DLL1 short; source: synthetic peptide (JPT Peptide Technologies)) [DLL1_05 (short peptide of Delta-like protein 1: GSGAG and the last five residues)] , the logged Kd turned out to be 200 µM
